Test system: HCT-116
Test method notes: Cytotoxicity against human HCT116 cells assessed as cell growth at 0.001 uM after 48 hrs by sulforhodamine B assay
Type: functional
Condition description: HCT-116, 48 h, read-out: Activity
Quick reference for growth at 0.001 µM among some compounds
Reported property: growth at 0.001 µM

[[record]]
chemical_structure = "COc1cc(C)cc(-c2nn(CC#N)cc2-c2ccc(-c3cccc(C(C)=O)c3)nc2)c1"
experimental_result = "101%"

[[record]]
chemical_structure = "COc1cc(C)cc(-c2nn(CC#N)cc2-c2ccnc(-c3ccc(N(C)C)cc3)c2)c1"
experimental_result = "96%"

[[record]]
chemical_structure = "COc1cc(C)cc(-c2c(-c3ccnc(-c4ccc(C(C)=O)cc4)c3)cnn2CC#N)c1"
experimental_result = "97%"

[[record]]
chemical_structure = "Cc1cc(O)cc(-c2nn(CC#N)cc2-c2ccnc(-c3ccc(Oc4ccccc4)cc3)c2)c1"
experimental_result = "95%"

[[record]]
chemical_structure = "Cc1cc(O)cc(-c2nn(CC#N)cc2-c2ccnc(-c3ccc(N(C)C)cc3)c2)c1"
experimental_result = "95%"

[[record]]
chemical_structure = "COc1cc(C)cc(-c2c(-c3ccnc(-c4ccc(N(C)C)cc4)c3)cnn2CC#N)c1"
experimental_result = "102%"

